B1: Azoarcus group I ribozyme (parent)
chain: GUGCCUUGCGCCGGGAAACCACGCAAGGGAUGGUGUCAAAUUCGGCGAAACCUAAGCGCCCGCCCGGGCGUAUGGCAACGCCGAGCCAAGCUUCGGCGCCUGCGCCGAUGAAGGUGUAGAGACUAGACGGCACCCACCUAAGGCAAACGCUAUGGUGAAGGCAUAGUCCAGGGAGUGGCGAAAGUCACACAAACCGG

variants of: B1; experiment: reverse-splicing fitness (ratio to wild type); higher = more active; in vitro selection; Mg2+ level not given
Recorded reverse-splicing fitness for the following variants
Reply briefly: the number, and no unit.

Please review the entries below; each comes with its answer.
change	reverse-splicing fitness
C82A A111G A120C A145C C150A C169U U176C	0.011
C82G A111C A120G A145G C169U U176G	0.00423
C82A A111C A120C A145U C150U C169U U176G	0.00824

Lookup: Value lookup for reverse-splicing fitness; key = C82U A111G A120U A145U
Found: 0.0429

Lookup: // query: A111G A120G A145U C150A C169U
Found: 0.0268

Data origin, for the record: the RNAGym collection of RNA variant scans (doi:10.1093/molbev/msab373)
